# measuredTarget: Sodium/potassium-transporting ATPase subunit alpha-2/beta-1 (Homo sapiens, UniProt P05026+P50993)
# assayComment: Na,K-ATPase Inhibition Assay
endpoint: pKi
The read-out pKi is expressed as -log10 of concentration in moles per litre.

What pKi value was documented for this molecule, CC1CN(C(CO)C(=O)O)CCC(O[C@@H]2[C@H](C)O[C@@H](O[C@@H]3[C@H](C)O[C@@H](O[C@H]4CC[C@@]5(C)C(CCC6C5C[C@H](O)[C@]5(C)[C@@H](C7=CC(=O)OC7)CC[C@]65O)C4)C[C@@H]3O)C[C@@H]2O)O1 (some centres undefined) ?
6.84

What pKi value was documented for this molecule, CC1CN(C(C)C(N)=O)CCC(O[C@@H]2[C@H](C)O[C@@H](O[C@@H]3[C@H](C)O[C@@H](O[C@H]4CC[C@@]5(C)C(CCC6C5C[C@H](O)[C@]5(C)[C@@H](C7=CC(=O)OC7)CC[C@]65O)C4)C[C@@H]3O)C[C@@H]2O)O1 (some centres undefined) ?
7.17

What pKi value was documented for this molecule, CC1CN(C)CCC(O[C@@H]2[C@H](C)O[C@@H](O[C@@H]3[C@H](C)O[C@@H](O[C@H]4CC[C@@]5(C)C(CCC6C5C[C@H](O)[C@]5(C)[C@@H](C7=CC(=O)OC7)CC[C@]65O)C4)C[C@@H]3O)C[C@@H]2O)O1 (some centres undefined) ?
7.81

What pKi value was documented for this molecule, COC(=O)CN1CCC(O[C@@H]2[C@H](C)O[C@@H](O[C@@H]3[C@H](C)O[C@@H](O[C@H]4CC[C@@]5(C)C(CCC6C5C[C@H](O)[C@]5(C)[C@@H](C7=CC(=O)OC7)CC[C@]65O)C4)C[C@@H]3O)C[C@@H]2O)OC(C)C1 (some centres undefined) ?
6.89

* * *

# measuredTarget: Sodium/potassium-transporting ATPase subunit alpha-1/beta-1 (Homo sapiens, UniProt P05023+P05026)
# assayComment: Na,K-ATPase Inhibition Assay
Answer each item with its documented pKi.
The read-out pKi is expressed as -log10 of concentration in moles per litre.

What pKi value was documented for this compound, CC1CN(C(CO)C(=O)O)CCC(O[C@@H]2[C@H](C)O[C@@H](O[C@@H]3[C@H](C)O[C@@H](O[C@H]4CC[C@@]5(C)C(CCC6C5C[C@H](O)[C@]5(C)[C@@H](C7=CC(=O)OC7)CC[C@]65O)C4)C[C@@H]3O)C[C@@H]2O)O1 (some centres undefined) [DSer (6)] ?
6.50

What pKi value was documented for this compound, CC1CN(CC(=O)O)CCC(O[C@@H]2[C@H](C)O[C@@H](O[C@@H]3[C@H](C)O[C@@H](O[C@H]4CC[C@@]5(C)C(CCC6C5C[C@H](O)[C@]5(C)[C@@H](C7=CC(=O)OC7)CC[C@]65O)C4)C[C@@H]3O)C[C@@H]2O)O1 (some centres undefined) [DGly (2)] ?
6.91

What pKi value was documented for this compound, CC1CN(C(CO)C(N)=O)CCC(O[C@@H]2[C@H](C)O[C@@H](O[C@@H]3[C@H](C)O[C@@H](O[C@H]4CC[C@@]5(C)C(CCC6C5C[C@H](O)[C@]5(C)[C@@H](C7=CC(=O)OC7)CC[C@]65O)C4)C[C@@H]3O)C[C@@H]2O)O1 (some centres undefined) [DSerN (7)] ?
6.62

What pKi value was documented for this compound, C[C@]12CC[C@H](O)C[C@H]1CC[C@@H]1[C@@H]2C[C@@H](O)[C@]2(C)[C@@H](C3=CC(=O)OC3)CC[C@]12O [CS337] ?
6.86

* * *

# measuredTarget: Sodium/potassium-transporting ATPase subunit alpha-1/beta-1 (Homo sapiens, UniProt P05023+P05026)
# assayComment: Na,K-ATPase Inhibition Assay
pKi: −log10 of the molar value.
Classification field: enter class 1 for pKi values not below 7, class 0 for values below it.

Form field: pKi at least 7? Entry: CCN1CCC(O[C@@H]2[C@H](C)O[C@@H](O[C@@H]3[C@H](C)O[C@@H](O[C@H]4CC[C@@]5(C)C(CCC6C5C[C@H](O)[C@]5(C)[C@@H](C7=CC(=O)OC7)CC[C@]65O)C4)C[C@@H]3O)C[C@@H]2O)OC(C)C1 (stereo partly drawn)
class 1

Form field: pKi at least 7? Entry: CC1CN(CCC(N)=O)CCC(O[C@@H]2[C@H](C)O[C@@H](O[C@@H]3[C@H](C)O[C@@H](O[C@H]4CC[C@@]5(C)C(CCC6C5C[C@H](O)[C@]5(C)[C@@H](C7=CC(=O)OC7)CC[C@]65O)C4)C[C@@H]3O)C[C@@H]2O)O1 (stereo partly drawn)
class 0

Form field: pKi at least 7? Entry: C[C@H]1O[C@@H](O[C@H]2[C@@H](O)C[C@H](O[C@H]3CC[C@@]4(C)[C@H](CC[C@@H]5[C@@H]4C[C@@H](O)[C@]4(C)[C@@H](C6=CC(=O)OC6)CC[C@]54O)C3)O[C@@H]2C)C[C@H](O)[C@@H]1O
class 0

Form field: pKi at least 7? Entry: CC1CN(C(C)C(N)=O)CCC(O[C@@H]2[C@H](C)O[C@@H](O[C@@H]3[C@H](C)O[C@@H](O[C@H]4CC[C@@]5(C)C(CCC6C5C[C@H](O)[C@]5(C)[C@@H](C7=CC(=O)OC7)CC[C@]65O)C4)C[C@@H]3O)C[C@@H]2O)O1 (stereo partly drawn)
class 0

Form field: pKi at least 7? Entry: CC1CN(CC(F)(F)F)CCC(O[C@@H]2[C@H](C)O[C@@H](O[C@@H]3[C@H](C)O[C@@H](O[C@H]4CC[C@@]5(C)C(CCC6C5C[C@H](O)[C@]5(C)[C@@H](C7=CC(=O)OC7)CC[C@]65O)C4)C[C@@H]3O)C[C@@H]2O)O1 (stereo partly drawn)
class 0

Form field: pKi at least 7? Entry: CC1CN(O)CCC(O[C@@H]2[C@H](C)O[C@@H](O[C@@H]3[C@H](C)O[C@@H](O[C@H]4CC[C@@]5(C)C(CCC6C5C[C@H](O)[C@]5(C)[C@@H](C7=CC(=O)OC7)CC[C@]65O)C4)C[C@@H]3O)C[C@@H]2O)O1 (stereo partly drawn)
class 0

* * *

Answer each item with its documented Ki.
# measuredTarget: Sodium/potassium-transporting ATPase subunit alpha-1/beta-1 (Homo sapiens, UniProt P05023+P05026)
# assayComment: Na,K-ATPase Inhibition Assay
Answer with a number only, understood to be in nM.

What Ki value was documented for this compound, COC(=O)CN1CCC(O[C@@H]2[C@H](C)O[C@@H](O[C@@H]3[C@H](C)O[C@@H](O[C@H]4CC[C@@]5(C)C(CCC6C5C[C@H](O)[C@]5(C)[C@@H](C7=CC(=O)OC7)CC[C@]65O)C4)C[C@@H]3O)C[C@@H]2O)OC(C)C1 (some centres undefined) ?
540

What Ki value was documented for this compound, CC1CN(C(CC(=O)O)CC(=O)O)CCC(O[C@@H]2[C@H](C)O[C@@H](O[C@@H]3[C@H](C)O[C@@H](O[C@H]4CC[C@@]5(C)C(CCC6C5C[C@H](O)[C@]5(C)[C@@H](C7=CC(=O)OC7)CC[C@]65O)C4)C[C@@H]3O)C[C@@H]2O)O1 (some centres undefined) ?
80

What Ki value was documented for this compound, CC1CN(C)CCC(O[C@@H]2[C@H](C)O[C@@H](O[C@@H]3[C@H](C)O[C@@H](O[C@H]4CC[C@@]5(C)C(CCC6C5C[C@H](O)[C@]5(C)[C@@H](C7=CC(=O)OC7)CC[C@]65O)C4)C[C@@H]3O)C[C@@H]2O)O1 (some centres undefined) ?
101

What Ki value was documented for this compound, CC1CN(CC(N)=O)CCC(O[C@@H]2[C@H](C)O[C@@H](O[C@@H]3[C@H](C)O[C@@H](O[C@H]4CC[C@@]5(C)C(CCC6C5C[C@H](O)[C@]5(C)[C@@H](C7=CC(=O)OC7)CC[C@]65O)C4)C[C@@H]3O)C[C@@H]2O)O1 (some centres undefined) ?
152
